Reference for the values: patent US12624112

Below, each entry is listed alongside its reported pKd.
# assayed system: T1, Human ST2-his (human, UniProt Q01638-2 19-328, limits assumed)
# T1 construct: Expressed in CHO-K1; The printed range starts at Met1; also called human ST2 fused with a 6-histidine tag at the C-terminus
# T1 sequence: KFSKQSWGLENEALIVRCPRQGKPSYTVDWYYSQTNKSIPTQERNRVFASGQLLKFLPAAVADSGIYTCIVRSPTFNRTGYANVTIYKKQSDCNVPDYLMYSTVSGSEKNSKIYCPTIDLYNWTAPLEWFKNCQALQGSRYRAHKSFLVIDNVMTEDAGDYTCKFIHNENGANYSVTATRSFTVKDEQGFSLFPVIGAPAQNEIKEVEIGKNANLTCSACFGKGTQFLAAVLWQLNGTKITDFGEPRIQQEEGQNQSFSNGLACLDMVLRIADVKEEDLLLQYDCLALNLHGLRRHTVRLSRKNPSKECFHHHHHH
# test: SPR Biacore X100, antibody captured on protein A chip, human ST2-his injected, pH 7.4
# Protocol: The experiment on the interaction between the anti-human ST2 antibodies and human ST2-his was performed using Biacore X100. Each anti-human ST2 antibody was diluted to 2 µg/mL and captured on the surface of a protein A chip for a capture time of 60 s. […] Association was monitored for 180 s and dissociation was monitored for 700 s, and the sensor surface was regenerated by injecting a solution of glycine at pH 2.0. Kinetic data were analyzed using a simple 1:1 binding model.
# pKd: negative log10 of molar concentration; output just the value

Take a look at these entries with their results.
5888-379-H2L1 (antibody, human IgG4 S228P, kappa, V domains shown, Humanized antibody) VH: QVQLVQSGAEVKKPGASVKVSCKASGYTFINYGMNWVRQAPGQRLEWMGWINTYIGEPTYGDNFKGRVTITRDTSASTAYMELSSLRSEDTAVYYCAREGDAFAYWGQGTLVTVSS VL: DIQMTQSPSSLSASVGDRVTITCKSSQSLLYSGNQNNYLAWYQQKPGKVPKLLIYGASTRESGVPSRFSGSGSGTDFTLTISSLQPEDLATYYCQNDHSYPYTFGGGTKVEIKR	9.31
5886-156-H1L0 (antibody, human IgG4 S228P, kappa, V domains shown, Humanized antibody expressed in CHO-K1, purified by protein A) VH: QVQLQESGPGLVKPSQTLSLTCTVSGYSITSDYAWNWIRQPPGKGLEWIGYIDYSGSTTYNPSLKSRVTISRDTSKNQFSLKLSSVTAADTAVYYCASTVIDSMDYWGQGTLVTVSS VL: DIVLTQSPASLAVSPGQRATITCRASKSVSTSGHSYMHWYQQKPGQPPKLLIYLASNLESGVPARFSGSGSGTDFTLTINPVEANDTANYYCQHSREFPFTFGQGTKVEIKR	9.56
5888-379-H2L2 (antibody, human IgG4 S228P, kappa, V domains shown, Humanized antibody) VH: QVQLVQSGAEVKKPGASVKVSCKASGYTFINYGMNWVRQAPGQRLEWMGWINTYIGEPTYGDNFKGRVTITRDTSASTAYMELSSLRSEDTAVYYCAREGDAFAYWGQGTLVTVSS VL: DIVMTQSPDSLAVSLGERATINCKSSQSLLYSGNQNNYLAWYQQKPGQPPKLLIYGASTRESGVPDRFSGSGSGTDFTLTISSLQAEDVAVYYCQNDHSYPYTFGGGTKVEIKR	9.29

Record request: pKd value, item 5888-153-H0L1 (antibody, human IgG4 S228P, kappa, V domains shown, Humanized antibody) VH: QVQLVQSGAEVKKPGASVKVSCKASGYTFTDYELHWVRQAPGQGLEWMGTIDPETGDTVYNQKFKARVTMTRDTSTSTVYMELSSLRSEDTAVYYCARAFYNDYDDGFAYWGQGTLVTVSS VL: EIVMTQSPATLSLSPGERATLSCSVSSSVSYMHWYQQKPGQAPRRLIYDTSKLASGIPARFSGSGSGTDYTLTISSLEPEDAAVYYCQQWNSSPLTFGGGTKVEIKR
10.00
